conditions: bacteroides thetaiotaomicron, 12 h, 2 µM
Description: The drug is tested on Bacteroides thetaiotaomicron strain: VPI-5482 for biotransformation. The drug concentrations were measured before and after a 12-h incubation by liquid-chromatography-coupled mass spectrometry (LC–MS)
OUTCOME MEASURE: Bacterial Biotransformation

Worked cases, Bacterial Biotransformation given:
O=C(O)COCCN1CCN(C(c2ccccc2)c2ccc(Cl)cc2)CC1 (stereo not drawn) [CETIRIZINE] = Compound metabolized
CC(CCc1ccccc1)NCC(O)c1ccc(O)c(C(N)=O)c1 (stereo not drawn) [LABETALOL] = Compound NOT metabolized
COc1ccc2cc([C@H](C)C(=O)O)ccc2c1 [NAPROXEN] = Compound NOT metabolized
CS(=O)(=O)O.OC(CCN1CCCCC1)(c1ccccc1)c1ccccc1 [PRIDINOL METHANESULFONATE] = Compound NOT metabolized
CC1Cc2ccccc2N1NC(=O)c1ccc(Cl)c(S(N)(=O)=O)c1 (stereo not drawn) [INDAPAMIDE] = Compound NOT metabolized
CC(O)(CS(=O)(=O)c1ccc(F)cc1)C(=O)Nc1ccc(C#N)c(C(F)(F)F)c1 (stereo not drawn) [BICALUTAMIDE] = Compound NOT metabolized
NC12CC3CC(CC(C3)C1)C2 [AMANTADINE] = Compound NOT metabolized
CCN(CC)CCCC(C)Nc1c2ccc(Cl)cc2nc2ccc(OC)cc12 (stereo not drawn) [QUINACRINE] = Compound NOT metabolized
CC(C)(C)NCC(O)c1cc(Cl)c(N)c(Cl)c1 (stereo not drawn) [CLENBUTEROL] = Compound NOT metabolized
COc1ccc([C@@H]2Sc3ccccc3N(CCN(C)C)C(=O)[C@@H]2OC(C)=O)cc1 [DILTIAZEM] = Compound metabolized

Inquiry: Could you tell me which Bacterial Biotransformation is on file for C#C[C@]1(OC(C)=O)CC[C@H]2[C@@H]3CCC4=C[C@@H](OC(C)=O)CC[C@@H]4[C@H]3CC[C@@]21C [ETHYNODIOL DIACETATE] ?
Reply text: Compound NOT metabolized

Inquiry: Could you tell me which Bacterial Biotransformation is on file for COc1ccc(C(CN(C)C)C2(O)CCCCC2)cc1 (stereo not drawn) [VENLAFAXINE] ?
Reply text: Compound NOT metabolized

Inquiry: Could you tell me which Bacterial Biotransformation is on file for CC(C(=O)O)c1ccc2c(c1)Cc1cccnc1O2 (stereo not drawn) [PRANOPROFEN] ?
Reply text: Compound metabolized

Provenance of the data: ChEMBL document CHEMBL5303573
